system: Her2 protein in MCF-7 breast cancer cells; test: Cell-based Her2 degradation assay by Western Blot; details: Homo sapiens, MCF7, 24 h, read-out: Her2 degradation WB IC50
observed-property: IC50

Take a look at these entries with their results.
compound | subject-of-test | IC50
O=C1C=C(Nc2ccc(Br)cc2)c2ccccc2C1=O [Compound 36] | Her2 protein in MCF-7 breast cancer cells | ~30 µM
O=C1C=C(Nc2ccc(Cl)cc2Cl)c2ccccc2C1=O [Compound 37] | Her2 protein in MCF-7 breast cancer cells | ~30 µM

Problem: Query IC50 for O=C1C=C(Nc2cccc(Cl)c2)c2ccccc2C1=O [Compound 28]
Solution: > 30 µM
